Measured Target: human FXR (Homo sapiens, UniProt Q96RI1)
Sequence (Q96RI1 262-486 limits assumed): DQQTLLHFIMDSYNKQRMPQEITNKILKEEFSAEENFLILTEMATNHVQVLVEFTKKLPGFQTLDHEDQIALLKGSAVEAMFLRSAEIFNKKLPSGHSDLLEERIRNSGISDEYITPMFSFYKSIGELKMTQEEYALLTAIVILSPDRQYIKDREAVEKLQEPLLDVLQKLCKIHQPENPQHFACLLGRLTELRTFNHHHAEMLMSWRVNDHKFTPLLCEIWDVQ
Test: transient human FXR/Gal4-luciferase reporter assay
Measurement Conditions: Gal4-hFXR LBD fusion, luciferase reporter in HEK293 cells; response relative to 8 μM GW-4064
Catalogue of molecules with associated pEC50
// returns pEC50 (minus log10 of molar concentration), number only

# annotated cases, reported pEC50 shown
Molecule | Recorded Value
O=C(C1CCCOC1)N(CC12CCC(c3nc(C4CC4)cs3)(CC1)CC2)c1cccc(-c2nc(C3CC3)no2)c1 (racemic) | 5.90
COC(=O)c1noc(-c2cccc(N(CC34CCC(c5nc(C6CC6)no5)(CC3)CC4)C(=O)C3CCCCC3)c2)n1 | 6.68

Lab note: next molecule to report on.
Ask | What does the data say about its pEC50? Entry: O=C(C1CCS(=O)(=O)CC1)N(CC12CCC(c3nc(C4CC4)no3)(CC1)CC2)c1cccc(-c2nc(C3CC3)no2)c1
Reply | 5.93
